Assay Remarks: The drug is tested on Bacteroides cellulosilyticus strain: DSM14838 for biotransformation. The drug concentrations were measured before and after a 12-h incubation by liquid-chromatography-coupled mass spectrometry (LC–MS)
Assay Context: 2 µM
Measurement Name: Bacterial Biotransformation

// below: answered compounds
{"Compound": "CC(C(=O)O)c1ccc2c(c1)Cc1cccnc1O2 (configuration not stated)", "Bacterial Biotransformation": "Compound metabolized"}
{"Compound": "CC(NC(C)(C)C)C(=O)c1cccc(Cl)c1 (configuration not stated)", "Bacterial Biotransformation": "Compound NOT metabolized"}
{"Compound": "COC(=O)[C@H](c1ccccc1Cl)N1CCc2sccc2C1.O=S(=O)(O)O [CLOPIDOGREL BISULFATE]", "Bacterial Biotransformation": "Compound NOT metabolized"}
{"Compound": "CCCc1nc(C(C)(C)O)c(C(=O)OCc2oc(=O)oc2C)n1Cc1ccc(-c2ccccc2-c2nnn[nH]2)cc1", "Bacterial Biotransformation": "Compound metabolized"}
{"Compound": "CCOC(=O)[C@H](CCc1ccccc1)N[C@@H](C)C(=O)N1Cc2ccccc2C[C@H]1C(=O)O", "Bacterial Biotransformation": "Compound metabolized"}

For the compound CCN(CC)C(C)CN1c2ccccc2Sc2ccccc21 (configuration not stated) , what Bacterial Biotransformation is on record? Compound NOT metabolized

And for CC(C)(C)N.CCC[C@H](N[C@@H](C)C(=O)N1[C@H](C(=O)O)C[C@@H]2CCCC[C@@H]21)C(=O)OCC ? Compound NOT metabolized

And for CN1CCN(CC/C=C2/c3ccccc3Sc3ccc(S(=O)(=O)N(C)C)cc32)CC1 ? Compound metabolized

And for CC(Oc1c(Cl)cccc1Cl)C1=NCCN1 (configuration not stated) ? Compound metabolized

And for O=C(O)c1cc(/N=N/c2ccc(S(=O)(=O)Nc3ccccn3)cc2)ccc1O ? Compound metabolized

And for Nc1nc2ccc(OC(F)(F)F)cc2s1 ? Compound NOT metabolized

And for CC(C)(C)NC(=O)[C@H]1CC[C@H]2[C@@H]3CC[C@H]4NC(=O)C=C[C@]4(C)[C@H]3CC[C@]12C [FINASTERIDE] ? Compound NOT metabolized

And for CC(=O)Oc1ccc(C(c2ccc(OC(C)=O)cc2)c2ccccn2)cc1 ? Compound metabolized

And for CCN(CC)CCOCCOC(=O)C1(c2ccccc2)CCCC1.O=C(O)CC(O)(CC(=O)O)C(=O)O [CARBETAPENTANE CITRATE] ? Compound metabolized

And for CN(C)C(=O)Oc1cccc([N+](C)(C)C)c1.[Br-] [NEOSTIGMINE BROMIDE] ? Compound NOT metabolized

And for CN1C(=O)CCS(=O)(=O)C1c1ccc(Cl)cc1 (configuration not stated) ? Compound NOT metabolized

And for C#C[C@]1(O)CC[C@H]2[C@@H]3CCC4=Cc5oncc5C[C@]4(C)[C@H]3CC[C@@]21C ? Compound metabolized

====

Assay Remarks: The drug is tested on Bacteroides ovatus strain: ATCC8483 for biotransformation. The drug concentrations were measured before and after a 12-h incubation by liquid-chromatography-coupled mass spectrometry (LC–MS)
Assay Context: 2 µM
Measurement Name: Bacterial Biotransformation

// below: answered compounds
{"Compound": "CS(=O)(=O)O.O.O.O.O=C1Cc2cc(CCN3CCN(c4nsc5ccccc45)CC3)c(Cl)cc2N1 [ZIPRASIDONE MESYLATE]", "Value Measured": "Compound metabolized"}
{"Compound": "CN(C)CCOC(C)(c1ccccc1)c1ccccn1.O=C(O)CCC(=O)O (centres undefined) [DOXYLAMINE SUCCINATE]", "Value Measured": "Compound NOT metabolized"}
{"Compound": "CCN(CC)CC#CCOC(=O)C(O)(c1ccccc1)C1CCCCC1.Cl (centres undefined) [OXYBUTYNIN CHLORIDE]", "Value Measured": "Compound NOT metabolized"}
{"Compound": "CN(C)CCc1c[nH]c2ccc(CS(=O)(=O)N3CCCC3)cc12", "Value Measured": "Compound NOT metabolized"}
{"Compound": "CSc1ccc2c(c1)C(N1CCN(C)CC1)Cc1ccccc1S2.O=C(O)/C=C\\C(=O)O (centres undefined)", "Value Measured": "Compound NOT metabolized"}
{"Compound": "COc1cc2c(c(OC)c1OC)-c1ccc(OC)c(=O)cc1[C@@H](NC(C)=O)CC2", "Value Measured": "Compound NOT metabolized"}
{"Compound": "COC(=O)[C@H](c1ccccc1Cl)N1CCc2sccc2C1.O=S(=O)(O)O [CLOPIDOGREL BISULFATE]", "Value Measured": "Compound metabolized"}
{"Compound": "CC(=O)Nc1ccc(OC(C)=O)cc1 [DIACETAMATE]", "Value Measured": "Compound metabolized"}

For the compound Cc1nc(Nc2ncc(C(=O)Nc3c(C)cccc3Cl)s2)cc(N2CCN(CCO)CC2)n1.O , what Bacterial Biotransformation is on record? Compound NOT metabolized
